Reported pIC50 values for the following compounds.
# SYSTEM_UNDER_TEST: human JAK2 (a.a. 828-1132) (Homo sapiens)
# Construct: JAK2 (a.a. 828-1132); His tag (N); made in house; host or cells: insect cells (baculovirus)
# Sequence (O60674 828-1132): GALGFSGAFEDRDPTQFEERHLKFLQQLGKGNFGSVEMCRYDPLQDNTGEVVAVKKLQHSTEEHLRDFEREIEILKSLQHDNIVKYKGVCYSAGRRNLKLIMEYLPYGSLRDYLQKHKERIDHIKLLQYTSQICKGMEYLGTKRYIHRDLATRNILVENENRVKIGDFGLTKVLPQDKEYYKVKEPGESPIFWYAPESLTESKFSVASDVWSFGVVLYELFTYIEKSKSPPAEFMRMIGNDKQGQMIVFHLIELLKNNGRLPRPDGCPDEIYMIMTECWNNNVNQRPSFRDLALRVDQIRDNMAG
# PROTOCOL_TEXT: In vitro JAK kinase assay (HTRF, phosphorylation of a biotinylated peptide), JAK2
# Format: biochemical
Structures can show the parent of a compound that is named as a salt.
Kindly note that pIC50 refers to -log10 of the concentration in mol/L and answer with the value alone.

Worked examples, 3 compounds total:
COMPOUND: O=C(Cc1ccsc1)Nc1ccc2cc1CCc1cccc(c1)Nc1ncc(Cl)c(n1)N2 [Example C32, trifluoroacetate]
pIC50: 7.70
--
COMPOUND: Clc1cnc2nc1Nc1cccc(c1)/C=C\c1cc(ccn1)N2
pIC50: 8.55
--
COMPOUND: O=C(Cc1cccnc1)Nc1ccc2cc1CCc1cccc(c1)Nc1ncc(Cl)c(n1)N2 [Example C39, bis(trifluoroacetate)]
pIC50: 7.54

**Q:** // lookup pIC50 | system=human JAK2 (a.a. 828-1132) (Homo sapiens) | key= CC(=O)N1CCC(COc2ccc3cc2CCc2cncc(c2)Nc2ncc(Cl)c(n2)N3)C1 (stereo not shown) [Example C56, bis(trifluoroacetate)]
**A:** 6.59

**Q:** Then this compound: O=C(Cc1coc2ccccc12)Nc1ccc2cc1CCc1cccc(c1)Nc1ncc(Cl)c(n1)N2 [Example C47, trifluoroacetate]
**A:** 6.87

**Q:** Then this compound: `CCCC(=O)N1Cc2cccc(c2)Nc2ncc(Cl)c(n2)Nc2cccc1c2`
**A:** 6.45
